B1: CROP (parent)
chain: VFGRGDNISDVSKFLEDDKWMEE

Variants of: B1
Assay: protein stability index of a GFP-peptide fusion (GPS, HEK-293T) (PSI 1-6); higher = more stable;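 note: lentivirally expressed fusions sorted by FACS into six bins by GFP to DsRed ratio, PSI derived from sequencing read proportions per bin multiplied by bin number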
Details: c terminus: native
measured endpoint: protein stability index
API doc: respond with a numeric literal and nothing else, no unit.

Consider the worked cases shown below.
N7P
1.35
G5D
2.29
E16F
2.42
N7M
1.64
F14E
4.92

Which measured protein stability index value corresponds to "D17R" ?
2.25

Tell me the measured protein stability index of "K19P" , please.
3.01

Consider the variant "M21Q" and give its measured protein stability index.
2.94

Param item = "E22V" ; retrieve measured protein stability index.
4.25

I have this variant here, "R4S" , and I need its recorded protein stability index.
2.33

Any idea what protein stability index was measured for "D17S" ?
1.52
